target under test: endogenously expressed human MSR1 on PMA-treated THP-1 cells (human) (UniProt P21757)
Sequence (P21757 whole entry): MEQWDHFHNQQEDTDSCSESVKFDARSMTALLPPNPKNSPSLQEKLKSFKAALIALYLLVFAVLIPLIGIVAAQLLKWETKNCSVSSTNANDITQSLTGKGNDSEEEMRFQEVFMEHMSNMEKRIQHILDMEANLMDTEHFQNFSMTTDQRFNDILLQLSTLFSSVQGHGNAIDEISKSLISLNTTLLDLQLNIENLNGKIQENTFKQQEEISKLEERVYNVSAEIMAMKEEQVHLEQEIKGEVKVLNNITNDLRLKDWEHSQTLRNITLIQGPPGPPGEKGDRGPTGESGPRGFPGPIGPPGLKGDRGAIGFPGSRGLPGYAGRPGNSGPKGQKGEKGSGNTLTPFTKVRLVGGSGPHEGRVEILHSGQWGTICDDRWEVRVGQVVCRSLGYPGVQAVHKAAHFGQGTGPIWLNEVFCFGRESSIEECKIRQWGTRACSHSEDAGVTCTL
protocol notes: ECL cell binding, PMA-treated THP-1
parameter measured: binding signal ratio to isotype control (11 nM) (fold)
Answer format: numeric, fold implied, no suffix.

Quick one: binding signal ratio to isotype control (11 nM) of H1H21227N-N297Q (antibody, human IgG1, V domains shown) VH: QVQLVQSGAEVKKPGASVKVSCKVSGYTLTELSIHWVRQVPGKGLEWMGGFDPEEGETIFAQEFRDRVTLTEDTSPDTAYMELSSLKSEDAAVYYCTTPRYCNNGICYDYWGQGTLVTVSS VL: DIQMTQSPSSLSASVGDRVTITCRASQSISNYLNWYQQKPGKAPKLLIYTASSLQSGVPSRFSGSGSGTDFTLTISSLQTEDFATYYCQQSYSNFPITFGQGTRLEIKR ? 5

Subsequent entry: H1H21231N (antibody, human IgG1, V domains shown) VH: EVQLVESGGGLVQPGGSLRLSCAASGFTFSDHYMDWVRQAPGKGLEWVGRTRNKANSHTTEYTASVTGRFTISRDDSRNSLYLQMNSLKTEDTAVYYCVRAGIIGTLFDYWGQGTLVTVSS VL: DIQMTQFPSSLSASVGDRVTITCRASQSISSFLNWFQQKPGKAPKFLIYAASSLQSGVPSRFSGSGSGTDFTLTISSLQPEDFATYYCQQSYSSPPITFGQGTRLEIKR 42

Subsequent entry: H1H21227N-N297D (antibody, human IgG1, V domains shown) VH: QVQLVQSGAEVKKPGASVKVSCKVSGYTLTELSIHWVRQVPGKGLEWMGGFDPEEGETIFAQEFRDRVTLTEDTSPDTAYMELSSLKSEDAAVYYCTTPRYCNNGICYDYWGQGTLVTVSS VL: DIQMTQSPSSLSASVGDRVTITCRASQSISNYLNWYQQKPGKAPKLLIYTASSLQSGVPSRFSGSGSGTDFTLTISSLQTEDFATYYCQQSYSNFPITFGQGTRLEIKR 6
